- assay setup: in water, 357.35 K

mol smiles | solubility (mole fraction)
CCCCn1cc[n+](C)c1.F[P-](F)(F)(F)(F)F | 0.00532

---

- assay setup: in water, 319.65 K

mol smiles | solubility (mole fraction)
CCCCn1cc[n+](C)c1.F[P-](F)(F)(F)(F)F | 0.00218

---

- assay setup: in water, 348.45 K

mol smiles | solubility (mole fraction)
CCCCCCCCn1cc[n+](C)c1.F[P-](F)(F)(F)(F)F | 0.000383

---

- assay setup: in water, 302.65 K
metric name: solubility (mole fraction)

mol smiles | metric name | observed
CCCCCCn1cc[n+](C)c1.F[P-](F)(F)(F)(F)F | solubility (mole fraction) | 0.000448

---

- assay setup: in water, 286.45 K

mol smiles | solubility (mole fraction)
CCCCCCn1cc[n+](C)c1.F[P-](F)(F)(F)(F)F | 0.000326

---

- assay setup: in water, 364.55 K
metric name: solubility (mole fraction)

mol smiles | observed
CCCCCCCCn1cc[n+](C)c1.F[P-](F)(F)(F)(F)F | 0.000574

---

- assay setup: in water, 319.35 K
metric name: solubility (mole fraction)

mol smiles | observed
CCCCCCn1cc[n+](C)c1.F[P-](F)(F)(F)(F)F | 0.00066

---

- assay setup: in water, 363.05 K
metric name: solubility (mole fraction)

mol smiles | metric name | observed
CCCCCCn1cc[n+](C)c1.F[P-](F)(F)(F)(F)F | solubility (mole fraction) | 0.0018

---

- assay setup: in water, 355.25 K

mol smiles | solubility (mole fraction)
CCCCCCn1cc[n+](C)c1.F[P-](F)(F)(F)(F)F | 0.00144

---

- assay setup: in water, 302.25 K

mol smiles | solubility (mole fraction)
CCCCn1cc[n+](C)c1.F[P-](F)(F)(F)(F)F | 0.00146

---

- assay setup: in water, 289.55 K

mol smiles | solubility (mole fraction)
CCCCn1cc[n+](C)c1.F[P-](F)(F)(F)(F)F | 0.00108

---

- assay setup: in water, 350.85 K

mol smiles | solubility (mole fraction)
CCCCn1cc[n+](C)c1.F[P-](F)(F)(F)(F)F | 0.00444

---

- assay setup: in water, 344.35 K
metric name: solubility (mole fraction)

mol smiles | observed
CCCCn1cc[n+](C)c1.F[P-](F)(F)(F)(F)F | 0.00371

---

- assay setup: in water, 328.15 K

mol smiles | solubility (mole fraction)
CCCCCCCCn1cc[n+](C)c1.F[P-](F)(F)(F)(F)F | 0.000239

---

- assay setup: in water, 283.55 K

mol smiles | solubility (mole fraction)
CCCCn1cc[n+](C)c1.F[P-](F)(F)(F)(F)F | 0.00102

---

- assay setup: in water, 350.75 K
metric name: solubility (mole fraction)

mol smiles | observed
CCCCCCn1cc[n+](C)c1.F[P-](F)(F)(F)(F)F | 0.00128

---

- assay setup: in water, 307.85 K

mol smiles | solubility (mole fraction)
CCCCCCn1cc[n+](C)c1.F[P-](F)(F)(F)(F)F | 0.000503

---

- assay setup: in water, 359.95 K

mol smiles | solubility (mole fraction)
CCCCCCn1cc[n+](C)c1.F[P-](F)(F)(F)(F)F | 0.00157

---

- assay setup: in water, 331.15 K
metric name: solubility (mole fraction)

mol smiles | metric name | observed
CCCCCCCCn1cc[n+](C)c1.F[P-](F)(F)(F)(F)F | solubility (mole fraction) | 0.000257

---

- assay setup: in water, 333.25 K
metric name: solubility (mole fraction)

mol smiles | observed
CCCCn1cc[n+](C)c1.F[P-](F)(F)(F)(F)F | 0.0029

---

- assay setup: in water, 326.65 K

mol smiles | solubility (mole fraction)
CCCCn1cc[n+](C)c1.F[P-](F)(F)(F)(F)F | 0.00244

---

- assay setup: in water, 310.35 K

mol smiles | solubility (mole fraction)
CCCCn1cc[n+](C)c1.F[P-](F)(F)(F)(F)F | 0.00171

---

- assay setup: in water, 340.25 K
metric name: solubility (mole fraction)

mol smiles | metric name | observed
CCCCCCn1cc[n+](C)c1.F[P-](F)(F)(F)(F)F | solubility (mole fraction) | 0.00105

---

- assay setup: in water, 299.05 K

mol smiles | solubility (mole fraction)
CCCCCCCCn1cc[n+](C)c1.F[P-](F)(F)(F)(F)F | 0.000128

---

- assay setup: in water, 338.35 K
metric name: solubility (mole fraction)

mol smiles | metric name | observed
CCCCn1cc[n+](C)c1.F[P-](F)(F)(F)(F)F | solubility (mole fraction) | 0.00339

---

- assay setup: in water, 311.35 K
metric name: solubility (mole fraction)

mol smiles | metric name | observed
CCCCCCCCn1cc[n+](C)c1.F[P-](F)(F)(F)(F)F | solubility (mole fraction) | 0.000169

---

- assay setup: in water, 331.75 K
metric name: solubility (mole fraction)

mol smiles | metric name | observed
CCCCCCn1cc[n+](C)c1.F[P-](F)(F)(F)(F)F | solubility (mole fraction) | 0.000852

---

- assay setup: in water, 285.85 K
metric name: solubility (mole fraction)

mol smiles | observed
CCCCCCCCn1cc[n+](C)c1.F[P-](F)(F)(F)(F)F | 9.4e-05

---

- assay setup: in water, 312.95 K
metric name: solubility (mole fraction)

mol smiles | observed
CCCCCCn1cc[n+](C)c1.F[P-](F)(F)(F)(F)F | 0.000545

---

- assay setup: in water, 338.85 K
metric name: solubility (mole fraction)

mol smiles | metric name | observed
CCCCCCCCn1cc[n+](C)c1.F[P-](F)(F)(F)(F)F | solubility (mole fraction) | 0.000304

---

- assay setup: in water, 358.55 K

mol smiles | solubility (mole fraction)
CCCCCCCCn1cc[n+](C)c1.F[P-](F)(F)(F)(F)F | 0.000505

---

- assay setup: in water, 326.35 K

mol smiles | solubility (mole fraction)
CCCCCCn1cc[n+](C)c1.F[P-](F)(F)(F)(F)F | 0.000734

---

- assay setup: in water, 353.75 K

mol smiles | solubility (mole fraction)
CCCCCCCCn1cc[n+](C)c1.F[P-](F)(F)(F)(F)F | 0.000445

---

- assay setup: in water, 278.75 K

mol smiles | solubility (mole fraction)
CCCCn1cc[n+](C)c1.F[P-](F)(F)(F)(F)F | 0.0009

---

- assay setup: in water, 318.15 K

mol smiles | solubility (mole fraction)
CCCCCCCCn1cc[n+](C)c1.F[P-](F)(F)(F)(F)F | 0.000197

---

- assay setup: in water, 345.85 K

mol smiles | solubility (mole fraction)
CCCCCCn1cc[n+](C)c1.F[P-](F)(F)(F)(F)F | 0.00113
